System: P1534 leukemia ip, CD2F1 mice, survival T/C
Assay: NCI In Vivo Anticancer Drug Screen. Data for tumor model P1534 Leukemia (intraperitoneal) in CD2F1 (CDF1) mice
Conditions: endpoint: mean survival time; dose: 12.5 mg/kg/injection; schedule: Q01DX010 (ip); vehicle: saline; higher = longer survival
Inconclusive results and toxic doses are left out.
Readout Kind: T/C

Would you please look over these solved cases?
Task: Fill in T/C for record NCCCC(=O)NCCCCCCCCCCNC(=O)CCCN
Output: 96 % of control

Task: Report T/C for COc1c(OC2OC(CO)C(O)C(O)C2O)cc2c(c1OC)-c1ccc(OC)c(=O)cc1C(NC(C)=O)CC2 (centres undefined)
Output: 107 % of control

Task: Give the reported T/C for this compound. C[C@@H]1CCC([C@@H](C)[C@H]2CC[C@H]3[C@@H]4CC[C@H]5C[C@@H](O)CC[C@]5(C)[C@H]4CC[C@]23C)=NC1
Output: 107 % of control

# next compound below
Task: Dear colleague, please send me the reported T/C for O=C(NCCCC(NC(=O)OCc1ccccc1)C(=O)NCCCCCCNCCCCCCNC(=O)C(CCCNC(=O)OCc1ccccc1)NC(=O)OCc1ccccc1)OCc1ccccc1 (centres undefined) when you can.
Output: 100 % of control

// data source = PubChem BioAssay AID316
